# experimental-parameters: male, Sprague-Dawley, rat, serum, po, 3 g/kg
measurement-name: Cmax (ng/mL)

1: CC(C)=CCc1cc(-c2coc3cc(O)ccc3c2=O)ccc1O
2: O=c1ccc2cc3ccoc3cc2o1
3: COc1ccc2c(c1O)-c1c(O)c(OC)cc3c1[C@H](C2)[N+](C)(C)CC3
stdin: Lab note: rank above entries, Cmax ascending. Reply with the labels, ordered as the question asks.
stdout: 1, 3, 2
(1: 1.46 ng/mL, 3: 31.8 ng/mL, 2: 290 ng/mL)

----------
# test-protocol: in vivo
# experimental-parameters: male, Sprague-Dawley, rat, po, 6 g/kg
measurement-name: MRT last (h)
The reply should contain only the number, in h.

For reference, reported MRT last for C=C[C@H]1[C@H](O[C@@H]2O[C@H](CO)[C@@H](O)[C@H](O)[C@H]2O)OC=C2C(=O)OCC[C@H]21 [Sweroside, sweroside] stands at 8.31

----------
# experimental-parameters: male, Sprague-Dawley, rat, serum, po, 3 g/kg
measurement-name: AUC(0-t) (ng·h/mL)

1: O=c1ccc2cc3ccoc3cc2o1
2: CC(C)=CCc1cc(-c2coc3cc(O)ccc3c2=O)ccc1O
3: COc1ccc2c(c1O)-c1c(O)c(OC)cc3c1[C@H](C2)[N+](C)(C)CC3
stdin: Lab note: rank above entries, AUC(0-t) ascending. Reply with the labels, ordered as the question asks.
stdout: 2, 3, 1

----------
# test-protocol: in vivo
# experimental-parameters: male, Sprague-Dawley, rat, po, 3 g/kg
measurement-name: AUC(0-inf) (ng·h/mL)
The reply should contain only the number, in ng·h/mL.

For reference, reported AUC(0-inf) for C=C[C@H]1[C@H](O[C@@H]2O[C@H](CO)[C@@H](O)[C@H](O)[C@H]2O)OC=C2C(=O)OCC[C@H]21 [Sweroside, sweroside] stands at 452

----------
# experimental-parameters: male, Sprague-Dawley, rat, serum, po, 12 g/kg
measurement-name: AUC(0-inf) (ng·h/mL)

O=c1ccc2cc3ccoc3cc2o1 [Psoralen, psoralen]
28400

A: CC(C)=CCc1cc(-c2coc3cc(O)ccc3c2=O)ccc1O [Neobavaisoflavone, neobavaisoflavone]
B: COc1ccc2c(c1O)-c1c(O)c(OC)cc3c1[C@H](C2)[N+](C)(C)CC3 [Magnoflorine, magnoflorine]
stdin: Hi, I'm comparing A with B and wondering which one has the bigger number for AUC(0-inf). Any idea? Please respond with the label that marks your chosen entry.
stdout: B
(B: 3480 ng·h/mL, A: 127 ng·h/mL)

----------
# experimental-parameters: male, Sprague-Dawley, rat, in vivo, po, 3 g/kg
measurement-name: MRT last (h)
The reply should contain only the number, in h.

For reference, reported MRT last for O=c1ccc2ccc3occc3c2o1 stands at 7.49

----------
# test-protocol: in vivo
# experimental-parameters: male, Sprague-Dawley, rat, po, 6 g/kg
measurement-name: AUC(0-inf) (µg·h/mL)
The reply should contain only the number, in µg·h/mL.

For reference, reported AUC(0-inf) for C=C[C@H]1[C@H](O[C@@H]2O[C@H](CO)[C@@H](O)[C@H](O)[C@H]2O)OC=C2C(=O)OCC[C@H]21 [Sweroside, sweroside] stands at 0.69

----------
# experimental-parameters: male, Sprague-Dawley, rat, serum, po, 6 g/kg
measurement-name: AUC(0-inf) (ng·h/mL)

I: COc1ccc2c(c1O)-c1c(O)c(OC)cc3c1[C@H](C2)[N+](C)(C)CC3
II: O=c1ccc2cc3ccoc3cc2o1
III: CC(C)=CCc1cc(-c2coc3cc(O)ccc3c2=O)ccc1O
stdin: Order all 3 entries above by recorded AUC(0-inf), highest first, lowest last. Reply with the labels, ordered as the question asks.
stdout: II, I, III

All figures here come from paper PMC6338342.
